Tested on: Streptococcus pyogenes SSI-9
assay name: Antibacterial activity assay of bead-derived peptides (three concentrations)
Assay type: cell-based
Parameters: key: +++: inhibition by the 640-fold diluted peptide solution; ++: inhibition by the 160-fold diluted solution; +: inhibition by the 40-fold diluted solution; -: no inhibition
setup conditions: S. pyogenes, bead-derived peptide solution, three concentrations
Where a SMILES comes first, the peptide text is derived from it. [ ]: non-standard residue; d: D form. The star is where a group is joined. NHCH2CH2OH = OCCN*; For = O=C*
measurement type: antibacterial activity

INSERT INTO measurements (compound, test_target, reported_value) VALUES
  ('CC(C)C[C@@H](NC(=O)[C@H](C)NC(=O)CNC(=O)[C@@H](NC=O)C(C)C)C(=O)N[C@@H](C)C(=O)N[C@H](CC(C)C)C(=O)N[C@H](C(=O)N[C@H](CC(C)C)C(=O)N[C@@H](Cc1c[nH]c2ccccc12)C(=O)N[C@@H](C(=O)N[C@@H](Cc1c[nH]c2ccccc12)C(=O)N[C@@H](C(=O)N[C@@H](Cc1c[nH]c2ccccc12)C(=O)N[C@@H](C(=O)N[C@@H](Cc1c[nH]c2ccccc12)C(=O)NCCO)C(C)C)C(C)C)[C@H](C)O)C(C)C [compound 5996] (For-VGA[dL]A[dL]V[dL]W[dT]W[dV]W[dV]W-NHCH2CH2OH)', 'Streptococcus pyogenes SSI-9', '-');

###

Test system: P388 mouse leukemia cells
setup conditions: 92 h
Where a SMILES comes first, the peptide text is derived from it. [ ]: non-standard residue; d: D form. The star is where a group is joined. NHCH2CH2OH = OCCN*; For = O=C*
cell viability/%: recorded values
measurement type: cell viability/% (%)

INSERT INTO assay_data (molecule, measurement_type, unit_of_measurement, reported_value) VALUES
  ('CC(C)C[C@@H](NC(=O)[C@H](C)NC(=O)[C@H](NC(=O)[C@H](C)NC(=O)CNC(=O)[C@@H](NC=O)C(C)C)C(C)C)C(=O)N[C@H](C(=O)N[C@@H](C(=O)N[C@@H](Cc1c[nH]c2ccccc12)C(=O)N[C@H](CC(C)C)C(=O)N[C@@H](Cc1c[nH]c2ccccc12)C(=O)N[C@H](CC(C)C)C(=O)N[C@@H](Cc1c[nH]c2ccccc12)C(=O)N[C@@H](C(=O)N[C@@H](Cc1c[nH]c2ccccc12)C(=O)NCCO)C(C)C)C(C)C)C(C)C [compound 9535] (For-VGA[dV]A[dL]V[dV]W[dL]W[dL]W[dV]W-NHCH2CH2OH)', 'cell viability/%', '%', 3.8),
  ('CC(C)C[C@@H](NC(=O)[C@H](Cc1c[nH]c2ccccc12)NC(=O)[C@@H](CC(C)C)NC(=O)[C@H](Cc1c[nH]c2ccccc12)NC(=O)[C@@H](CC(C)C)NC(=O)[C@H](Cc1c[nH]c2ccccc12)NC(=O)[C@H](NC(=O)[C@@H](NC(=O)[C@H](NC(=O)[C@H](C)NC(=O)[C@H](NC(=O)[C@H](C)NC(=O)CNC(=O)[C@@H](NC=O)C(C)C)C(C)C)C(C)C)C(C)C)C(C)C)C(=O)N[C@@H](Cc1c[nH]c2ccccc12)C(=O)NCCO [compound 3311] (For-VGA[dV]A[dV]V[dV]W[dL]W[dL]W[dL]W-NHCH2CH2OH)', 'cell viability/%', '%', 3.3),
  ('CC(C)C[C@@H](NC(=O)[C@H](C)NC(=O)CNC(=O)[C@@H](NC=O)C(C)C)C(=O)N[C@@H](C)C(=O)N[C@H](CC(C)C)C(=O)N[C@H](C(=O)N[C@@H](C(=O)N[C@@H](Cc1c[nH]c2ccccc12)C(=O)N[C@@H](C(=O)N[C@@H](Cc1c[nH]c2ccccc12)C(=O)N[C@@H](C(=O)N[C@@H](Cc1c[nH]c2ccccc12)C(=O)N[C@@H](C(=O)N[C@@H](Cc1c[nH]c2ccccc12)C(=O)NCCO)[C@H](C)O)C(C)C)C(C)C)C(C)C)C(C)C [compound 9735] (For-VGA[dL]A[dL]V[dV]W[dV]W[dV]W[dT]W-NHCH2CH2OH)', 'cell viability/%', '%', 100.0),
  ('CC(C)C[C@@H](NC(=O)[C@H](C)NC(=O)CNC(=O)[C@@H](NC=O)C(C)C)C(=O)N[C@@H](C)C(=O)N[C@@H](C(=O)N[C@H](C(=O)N[C@H](CC(C)C)C(=O)N[C@@H](Cc1c[nH]c2ccccc12)C(=O)N[C@@H](C(=O)N[C@@H](Cc1c[nH]c2ccccc12)C(=O)N[C@H](CC(C)C)C(=O)N[C@@H](Cc1c[nH]c2ccccc12)C(=O)N[C@H](CC(C)C)C(=O)N[C@@H](Cc1c[nH]c2ccccc12)C(=O)NCCO)C(C)C)C(C)C)C(C)C [compound 8464] (For-VGA[dL]A[dV]V[dL]W[dV]W[dL]W[dL]W-NHCH2CH2OH)', 'cell viability/%', '%', 4.1);

FYI, the data here is from paper PMC7531004.
